- experiment_notes: Liver Microsome Stability Assay (human)
- condition_info: human liver microsomes, with NADPH, 1.0 uM compound
readout_name: Liver Microsome Stability (Multiple Species): Human - % Remaining after 30 min w/NADPH (%)
Numbers only, in %.

{"compound": "Cc1ccc(N2CCC[C@@H]2c2csc(NC(=O)c3cccn3Cc3ccncc3)n2)cc1 [Compound A21]", "measurement_units": "%", "measured_number": 4.28}
{"compound": "O=C(Nc1nc([C@H]2CCCN2c2ccccc2)cs1)c1cccn1Cc1ccc(F)cc1 [Compound C119]", "measurement_units": "%", "measured_number": 61.3}
{"compound": "O=C(Nc1nc([C@H]2CCCN2c2ccccc2)cs1)c1cccn1CCc1cccnc1 [Compound E21]", "measurement_units": "%", "measured_number": 0.8}

Report Liver Microsome Stability (Multiple Species): Human - % Remaining after 30 min w/NADPH for every entry below.
1. NC(=O)c1ccc(N2CCC[C@@H]2c2csc(NC(=O)c3cccn3Cc3ccncc3)n2)cc1 [Compound A19]
2. O=C(Nc1ccc(N2CCC[C@@H]2c2csc(NC(=O)c3cccn3Cc3ccnc(F)c3)n2)cc1)OC1COC1 [Compound A177]
3. CC(=O)N1CCC(Oc2ccc(N3CCC[C@@H]3c3csc(NC(=O)c4cccn4Cc4ccnc(F)c4)n3)cc2F)CC1 [Compound A102]
4. CC(=O)N1CC(Oc2ccc(N3CCC[C@@H]3c3csc(NC(=O)c4cccn4Cc4ccnc(F)c4)n3)cc2)C1 [Compound A81]
5. CCc1ccc(N2CCC[C@@H]2c2csc(NC(=O)c3cccn3Cc3ccncc3)n2)cn1 [Compound C95]

Result:
1: 0.48; 2: 39.3; 3: 8.26; 4: 12.8; 5: 0.44

* * *

- experiment_notes: Liver Microsome Stability Assay (monkey)
- condition_info: monkey liver microsomes, with NADPH, 1.0 uM compound
Tag: class 1 if measured Liver Microsome Stability (Multiple Species): Monkey - % Remaining after 30 min w/NADPH is not below 3%, class 0 if it is.

Recorded results for 5 molecules are shown here.
{"molecule": "O=C(Nc1nc(/C=C/c2cn(C3CCOCC3)cn2)cs1)c1cccn1Cc1ccnc(F)c1", "group_label": "class 0"}
{"molecule": "O=C(Nc1nc([C@H]2CCCN2c2ccc(OC3CCN(C(=O)C(F)F)CC3)cc2)cs1)c1cccn1Cc1ccnc(F)c1", "group_label": "class 0"}
{"molecule": "O=C(Nc1nc([C@H]2CCCN2c2ccc(C3CCCCN3)cc2)cs1)c1cccn1Cc1ccncc1 (stereo partly drawn)", "group_label": "class 0"}
{"molecule": "CCc1ccc(N2CCC[C@@H]2c2csc(NC(=O)c3cccn3Cc3ccncc3)n2)cc1", "group_label": "class 1"}
{"molecule": "CC(=O)Nc1ccc(N2CCC[C@@H]2c2csc(NC(=O)c3cccn3Cc3ccncc3)n2)cc1", "group_label": "class 0"}

Problem: Record O=C(Nc1nc([C@H]2CCCN2c2ccccc2)cs1)c1cccn1Cc1cc(F)nc(F)c1 ; criterion: Liver Microsome Stability (Multiple Species): Monkey - % Remaining after 30 min w/NADPH no lower than 3%. Met?
Result: class 1

Problem: Evaluate O=C(Nc1nc([C@H]2CCCN2c2ccccc2)cs1)c1cccn1Cc1cnn[nH]1 : Liver Microsome Stability (Multiple Species): Monkey - % Remaining after 30 min w/NADPH at minimum 3%?
Result: class 1

Problem: Quick check: does N#CCCCn1cccc1C(=O)Nc1nc([C@H]2CCCN2c2ccccc2)cs1 have Liver Microsome Stability (Multiple Species): Monkey - % Remaining after 30 min w/NADPH greater than or equal to 3%?
Result: class 0

* * *

- experiment_notes: Liver Microsome Stability Assay (mouse)
- condition_info: mouse liver microsomes, with NADPH, 1.0 uM compound
readout_name: Liver Microsome Stability (Multiple Species): Mouse - % Remaining after 30 min w/NADPH (%)
Numbers only, in %.

{"compound": "O=C(Nc1nc(C2Cc3cccnc3C2)cs1)c1cccn1Cc1ccncc1 (centres unmarked)", "measured_number": 0.18}
{"compound": "O=C(Nc1nc([C@H]2CCCN2c2ccccc2)cs1)c1cccn1Cc1cnn[nH]1", "measured_number": 37.5}

I'm hoping you can list Liver Microsome Stability (Multiple Species): Mouse - % Remaining after 30 min w/NADPH for every compound here, please.
1. CC(C)n1cnc(-c2ccccc2-c2csc(NC(=O)c3cccn3Cc3ccnc(F)c3)n2)c1
2. CN(C)C(=O)Nc1ccc(N2CCC[C@@H]2c2csc(NC(=O)c3cccn3Cc3ccnc(F)c3)n2)cc1
3. O=C(Nc1nc(/C=C/c2cn(C3CCCCC3)cn2)cs1)c1cccn1Cc1ccncc1
4. O=C(Nc1nc([C@H]2CCCN2c2ccncc2)cs1)c1cccn1Cc1ccncc1

Result:
0.08
31.2
4.16
2.74

Hello, I would appreciate it if you could give Liver Microsome Stability (Multiple Species): Mouse - % Remaining after 30 min w/NADPH for each entry below.
1. O=C(Nc1nc(/C=C/c2ncoc2C2CCCCC2)cs1)c1cccn1Cc1ccncc1
2. CC1CCCc2c(/C=C/c3csc(NC(=O)c4cccn4Cc4ccnc(F)c4)n3)ncn21 (centres unmarked)

Result:
1. 32.1
2. 6.67

* * *

- experiment_notes: Liver Microsome Stability Assay (mouse)
- condition_info: mouse liver microsomes, with NADPH, 1.0 uM compound
Please go through the items and note down their Liver Microsome Stability (Multiple Species): Mouse - % Remaining after 30 min w/NADPH.
One number for each entry, in %.

Before answering, review these 2 worked examples.
{"compound": "CC(C)c1cc(/C=C/c2csc(NC(=O)c3cccn3Cc3ccnc(F)c3)n2)no1", "measured_number": 10.8}
{"compound": "N#CC1CC1Cn1cccc1C(=O)Nc1nc([C@H]2CCCN2c2ccccc2)cs1 (some centres unmarked)", "measured_number": 31.1}

For every listed record, write down its Liver Microsome Stability (Multiple Species): Mouse - % Remaining after 30 min w/NADPH.
1. Cn1cccc1C(=O)Nc1nc([C@H]2CCCN2c2ccccc2)cs1
2. CC(=O)N(C)c1ccc(N2CCC[C@@H]2c2csc(NC(=O)c3cccn3Cc3ccncc3)n2)cc1

Result:
[9.27, 0.02]

* * *

- experiment_notes: Liver Microsome Stability Assay (monkey)
- condition_info: monkey liver microsomes, with NADPH, 1.0 uM compound
Rule: Liver Microsome Stability (Multiple Species): Monkey - % Remaining after 30 min w/NADPH below 0.2% gives label 1, anything at or above gives label 0.

{"line_notation": "O=C(Nc1nc([C@H]2CCCN2c2ccc([N+](=O)[O-])cc2)cs1)c1cccn1Cc1ccncc1", "group_label": "label 0"}

Problem: Is the reported Liver Microsome Stability (Multiple Species): Monkey - % Remaining after 30 min w/NADPH for COCCOc1ccc(N2CCC[C@@H]2c2csc(NC(=O)c3cccn3Cc3ccnc(F)c3)n2)cc1 strictly below 0.2%?
Result: label 0

Problem: Given the entry CC(=O)Nc1c(F)cc(N2CCC[C@@H]2c2csc(NC(=O)c3cccn3Cc3ccnc(F)c3)n2)cc1F , would its reported Liver Microsome Stability (Multiple Species): Monkey - % Remaining after 30 min w/NADPH be below 0.2%?
Result: label 1

Problem: Input O=C(Nc1nc(/C=C/c2cocn2)cs1)c1cccn1Cc1ccncc1 ; condition: Liver Microsome Stability (Multiple Species): Monkey - % Remaining after 30 min w/NADPH strictly below 0.2%. Does it hold?
Result: label 0

Problem: # check: Liver Microsome Stability (Multiple Species): Monkey - % Remaining after 30 min w/NADPH < 0.2% for C[C@H](N)c1ccc(N2CCC[C@@H]2c2csc(NC(=O)c3cccn3Cc3ccnc(F)c3)n2)cc1
Result: label 0

Problem: Input C#CCCCn1cccc1C(=O)Nc1nc([C@H]2CCCN2c2ccccc2)cs1 ; condition: Liver Microsome Stability (Multiple Species): Monkey - % Remaining after 30 min w/NADPH strictly below 0.2%. Does it hold?
Result: label 0

Problem: Liver Microsome Stability (Multiple Species): Monkey - % Remaining after 30 min w/NADPH under 0.2%? Item: CCn1cnc(/C=C/c2csc(NC(=O)c3cccn3Cc3ccnc(F)c3)n2)c1C
Result: label 0

Problem: Is Liver Microsome Stability (Multiple Species): Monkey - % Remaining after 30 min w/NADPH of O=C(Nc1nc(-c2ccccc2-c2ccccn2)cs1)c1cccn1Cc1ccnc(F)c1 strictly below 0.2%?
Result: label 1

* * *

- experiment_notes: Liver Microsome Stability Assay (rat)
- condition_info: rat liver microsomes, with NADPH, 1.0 uM compound
Exam item: assign y to entries whose Liver Microsome Stability (Multiple Species): Rat - % Remaining after 30 min w/NADPH is below 5% and n to entries at or above 5%. Note that a value of exactly 5% receives n.

Below are worked cases with known answers.
{"molecule": "O=C(Nc1nc([C@H]2CCCN2c2ccc([N+](=O)[O-])cc2)cs1)c1cccn1Cc1ccncc1", "group_label": "y"}
{"molecule": "Cc1cc(C(=O)Nc2nc([C@H]3CCCN3c3ccccc3)cs2)n(Cc2ccncc2)c1", "group_label": "n"}
{"molecule": "Cc1nc(/C=C/c2csc(NC(=O)c3cccn3Cc3ccncc3)n2)cn1C", "group_label": "y"}
{"molecule": "O=C(Nc1nc([C@H]2CCCN2c2ccccc2)cs1)c1cccn1Cc1ccccc1", "group_label": "n"}
{"molecule": "CN1c2ccccc2CCC1/C=C/c1csc(NC(=O)c2cccn2Cc2ccncc2)n1 (stereo not shown)", "group_label": "n"}
{"molecule": "CC(=O)NCc1ccc(N2CCC[C@@H]2c2csc(NC(=O)c3cccn3CC3CCOCC3)n2)cc1", "group_label": "y"}

Problem: Field: below-cutoff. Rule: recorded Liver Microsome Stability (Multiple Species): Rat - % Remaining after 30 min w/NADPH strictly less than 5%. Subject: CC(=O)Nc1ccc(N2CCC[C@@H]2c2csc(NC(=O)c3cccn3Cc3ccnc(F)c3)n2)c(F)c1
Result: y

Problem: I'd appreciate it if you could check whether NC(=O)N1CCC(Oc2ccc(N3CCC[C@@H]3c3csc(NC(=O)c4cccn4Cc4ccnc(F)c4)n3)nc2)CC1 has Liver Microsome Stability (Multiple Species): Rat - % Remaining after 30 min w/NADPH smaller than 5%.
Result: n

Problem: Liver Microsome Stability (Multiple Species): Rat - % Remaining after 30 min w/NADPH strictly < 5% for this molecule? O=C(Nc1nc([C@H]2CCCN2c2ccccc2)cs1)c1cccn1CC1CCOC1 (stereo partly shown)
Result: n

Problem: Lab note: Liver Microsome Stability (Multiple Species): Rat - % Remaining after 30 min w/NADPH threshold 5%. Does this molecule come in strictly under it? O=C(Nc1nc([C@H]2CCCN2c2ccc(OC3CCNC3)cc2)cs1)c1cccn1Cc1ccnc(F)c1 (stereo partly shown)
Result: n

Problem: Does this molecule meet the criterion Liver Microsome Stability (Multiple Species): Rat - % Remaining after 30 min w/NADPH < 5%? O=C(Nc1nc(C#Cc2ccccn2)cs1)c1cccn1Cc1ccncc1
Result: y

Problem: For the molecule CC(C)c1nc(/C=C/c2csc(NC(=O)c3cccn3Cc3ccncc3)n2)cn1C , is Liver Microsome Stability (Multiple Species): Rat - % Remaining after 30 min w/NADPH under 5%?
Result: y
